Listing of entries alongside the reported remaining activity at 25 µM.
target: E. coli CsgA (Escherichia coli, UniProt P28307); construct: made in house; host or cells: E. coli NEB 3016 slyD::kan, pET11d; assay: In vitro ThioflavinT assay of CsgA aggregation (CsgA ThT Assay); type: biochemical; conditions: read-out: CsgA ThT Assay (2 μM CsgA) % Control Bmax 25 μM, activity range, class symbol; CsgA 2 μM, white plates; compound 25 μM
Sequence (P28307 23-151): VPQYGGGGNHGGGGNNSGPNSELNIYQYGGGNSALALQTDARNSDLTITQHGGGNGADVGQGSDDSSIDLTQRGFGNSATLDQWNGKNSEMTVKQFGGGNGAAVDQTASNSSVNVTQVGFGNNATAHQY
recorded_metric: remaining activity at 25 µM

> print(dat)
                                   molecule                               test.system     result
1  O=C(O)C1CN(CC2CCCC2)S(=O)(=O)c2c(-c3cccc(C(F)(F)F)c3)c(Cc3cccc4ccccc34)c(NC3CCCC3)c(=O)n21 (stereo not drawn)  E. coli CsgA (Escherichia coli, UniProt P28307)  31 to 60%
2  O=C(O)C1CN(Cc2ccccc2)c2c(-c3ccc(Br)cc3)c(Cc3cccc4ccccc34)c(Cl)c(=O)n21 (stereo not drawn)  E. coli CsgA (Escherichia coli, UniProt P28307)      > 60%
3  NC(=O)c1c(Cc2cccc3ccccc23)c(-c2cccc(C(F)(F)F)c2)c2n(c1=O)C(C(=O)O)CN(CCCO)S2(=O)=O (stereo not drawn)  E. coli CsgA (Escherichia coli, UniProt P28307)  31 to 60%

All values here come from patent US20230131899A1.
